Hey, just so you know, these numbers are from paper PMC8000448.

Target: UniProt:P35503
Sequence (P35503 29-534): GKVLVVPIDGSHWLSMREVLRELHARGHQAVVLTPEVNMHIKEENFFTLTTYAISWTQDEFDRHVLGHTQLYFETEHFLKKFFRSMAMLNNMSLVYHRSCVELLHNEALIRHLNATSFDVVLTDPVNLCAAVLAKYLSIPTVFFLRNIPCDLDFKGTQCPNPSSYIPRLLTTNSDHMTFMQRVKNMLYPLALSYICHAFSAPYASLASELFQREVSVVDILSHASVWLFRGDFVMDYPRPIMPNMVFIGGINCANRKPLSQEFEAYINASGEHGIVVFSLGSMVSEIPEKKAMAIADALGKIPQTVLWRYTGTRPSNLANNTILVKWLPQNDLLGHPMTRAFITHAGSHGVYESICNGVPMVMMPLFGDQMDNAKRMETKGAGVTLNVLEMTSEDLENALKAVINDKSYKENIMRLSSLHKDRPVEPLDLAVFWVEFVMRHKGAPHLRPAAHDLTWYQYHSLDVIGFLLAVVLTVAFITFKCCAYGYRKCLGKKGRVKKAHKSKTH
pIC50: −log10 of the molar value.
Measured metric: pIC50

Compound: COc1cc2c(c(OC)c1OC)-c1c(cc(OC)c(OC)c1OC)C[C@](C)(O)[C@@H](C)C2 [Schisandrin, schisandrin]
Target system: UniProt:P35503
Measured metric: pIC50
Value modifier: <
Numeric result: 4.30
--
Compound: COc1cc2c(c(OC)c1OC)-c1c(cc3c(c1OC)OCO3)C[C@H](C)[C@H](C)C2 [Gomisin N, gomisin N]
Target system: UniProt:P35503
Measured metric: pIC50
Value modifier: =
Numeric result: 4.57
--
Compound: COc1c2c(cc3c1-c1c(cc4c(c1OC)OCO4)C[C@H](C)[C@H](C)C3)OCO2 [Wuweizisu C, wuweizisu C]
Target system: UniProt:P35503
Measured metric: pIC50
Value modifier: <
Numeric result: 4.30
--
Compound: COc1cc2c(c(OC)c1OC)-c1c(cc3c(c1OC)OCO3)C[C@H](C)[C@](C)(O)[C@H]2OC(=O)c1ccccc1 [Gomisin C, gomisin C]
Target system: UniProt:P35503
Measured metric: pIC50
Value modifier: =
Numeric result: 4.82
